Just for reference, patent US8232297B2 is where these values come from.

# Tested on: HeLa cervical carcinoma cells
# Procedure Text: Cellular cytotoxicity assay (Alamar Blue), HeLa
# Format: cell-based
# Conditions Used: Homo sapiens, 72 h, printed only as range over the group of listed compounds
pIC50: −log10 of the molar value.
Reported Endpoint: pIC50

Form field pIC50, entry Cc1ccc(S(=O)(=O)n2ccc(C=CC(=O)NO)c2)cc1 [Compound 1] : 4.67 to 6.10

====

melting point overview

Worked examples follow.
NCc1ccc(S(=O)(=O)n2ccc(/C=C/C(=O)NO)c2)cc1 = 227 to 228.6 °C
O=C(/C=C/c1ccn(S(=O)(=O)c2ccc(-c3ccncc3)cc2)c1)NO = 219.3 to 221.4 °C
Nc1ccccc1NC(=O)/C=C/c1ccn(S(=O)(=O)c2ccc(-c3ccccn3)s2)c1 = 171.3 to 174.7 °C

The reported melting point of the compound O=C(/C=C/c1ccn(S(=O)(=O)c2ccc(-c3cn[nH]c3)cc2)c1)NO was 203.8 to 211.9 °C

melting point in this record for Nc1ccccc1NC(=O)/C=C/c1ccn(S(=O)(=O)c2ccc(-c3cccnc3)cc2)c1 : 199.7 to 202.3 °C

// O=C(/C=C/c1ccn(S(=O)(=O)c2cccc(-c3ccccc3)c2)c1)NO : melting point value = 114 to 159.4 °C

For record O=C(/C=C/c1ccn(S(=O)(=O)c2ccc(CN3CCOCC3)cc2)c1)NO the listed melting point is 168 to 170 °C

GET /value?item= Nc1ccccc1NC(=O)/C=C/c1ccn(S(=O)(=O)c2ccc(-c3ccncc3)cc2)c1 &field=melting point returns 244.2 to 246.5 °C

Memo: Nc1ccccc1NC(=O)/C=C/c1ccn(S(=O)(=O)c2ccc(-c3cn[nH]c3)cc2)c1 , reported melting point: 232.3 to 240.9 °C

The reported value for O=C(/C=C/c1ccn(S(=O)(=O)c2ccc(-n3cccn3)cc2)c1)NO in terms of melting point is 160.7 to 166.6 °C
